Kindly supply the reported hAPJ Ca2+ Flux EC50 values for the records listed here.
- System: T1, human APJ receptor (hAPJ) (human, UniProt P35414 1-380)
- T1 sequence (looked up): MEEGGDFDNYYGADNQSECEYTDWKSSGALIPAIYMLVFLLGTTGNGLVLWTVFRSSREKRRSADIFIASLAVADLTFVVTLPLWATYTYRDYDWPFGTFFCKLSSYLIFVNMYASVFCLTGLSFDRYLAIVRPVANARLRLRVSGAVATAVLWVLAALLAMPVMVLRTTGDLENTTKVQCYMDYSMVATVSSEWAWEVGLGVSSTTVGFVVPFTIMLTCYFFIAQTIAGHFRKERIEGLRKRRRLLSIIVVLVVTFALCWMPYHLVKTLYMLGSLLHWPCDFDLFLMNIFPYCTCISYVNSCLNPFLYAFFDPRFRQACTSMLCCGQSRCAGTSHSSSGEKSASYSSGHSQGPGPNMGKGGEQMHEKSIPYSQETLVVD
- Assay Name: cell-based or functional assay
Bridges are numbered along the chain shown (N, C = ends). [ ]: non-standard residue; d: D form. The star is where a group is joined. Bip = N[C@@H](Cc1ccc(-c2ccccc2)cc1)C(=O)O; Palmitoyl = CCCCCCCCCCCCCCCC(=O)*; pGlu = O=C1CC[C@@H](C(=O)O)N1; hCys = N[C@@H](CCS)C(=O)O; Nle = CCCC[C@H](N)C(=O)O; Aib = CC(C)(N)C(=O)O
The answer is to be given in nM; state only the numeric part.

## Task # query: hAPJ Ca2+ Flux EC50 of entry [pGlu][dR]PRLCHKGP[Nle]CF-OH (disulfide 6-12; SMILES CCCC[C@@H]1NC(=O)[C@@H]2CCCN2C(=O)CNC(=O)[C@H](CCCCN)NC(=O)[C@H](Cc2c[nH]cn2)NC(=O)[C@@H](NC(=O)[C@H](CC(C)C)NC(=O)[C@H](CCCNC(=N)N)NC(=O)[C@@H]2CCCN2C(=O)[C@@H](CCCNC(=N)N)NC(=O)[C@@H]2CCC(=O)N2)CSSC[C@@H](C(=O)N[C@@H](Cc2ccccc2)C(=O)O)NC1=O) [Example 30: pE-r-P-R-L-C-H-K-G-P-Nle-C-F-OH]
## Result 6.05

## Task Try this binder too: [pGlu]RPR[Bip]CHKGP[Nle]CF-OH (disulfide 6-12; SMILES CCCC[C@@H]1NC(=O)[C@@H]2CCCN2C(=O)CNC(=O)[C@H](CCCCN)NC(=O)[C@H](Cc2c[nH]cn2)NC(=O)[C@@H](NC(=O)[C@H](Cc2ccc(-c3ccccc3)cc2)NC(=O)[C@H](CCCNC(=N)N)NC(=O)[C@@H]2CCCN2C(=O)[C@H](CCCNC(=N)N)NC(=O)[C@@H]2CCC(=O)N2)CSSC[C@@H](C(=O)N[C@@H](Cc2ccccc2)C(=O)O)NC1=O) [Example 41: pE-R-P-R-(4-PhF)-C-H-K-G-P-Nle-C-F-OH]
## Result 6.91

## Task Try this binder too: [pGlu]RPRLCHKGP[Nle]CH-OH (disulfide 6-12; SMILES CCCC[C@@H]1NC(=O)[C@@H]2CCCN2C(=O)CNC(=O)[C@H](CCCCN)NC(=O)[C@H](Cc2c[nH]cn2)NC(=O)[C@@H](NC(=O)[C@H](CC(C)C)NC(=O)[C@H](CCCNC(=N)N)NC(=O)[C@@H]2CCCN2C(=O)[C@H](CCCNC(=N)N)NC(=O)[C@@H]2CCC(=O)N2)CSSC[C@@H](C(=O)N[C@@H](Cc2c[nH]cn2)C(=O)O)NC1=O) [Example 48: pE-R-P-R-L-C-H-K-G-P-Nle-C-H-OH]
## Result 4.1

## Task Try this binder too: [pGlu]RPRLKFKGP[Nle]F (lactam 6-C) [Example 5: pE-R-P-R-L-K-F-K-G-P-Nle-F]
## Result 21.2

## Task Try this binder too: [pGlu]RPRDCHKGP[Nle]CF-OH (disulfide 6-12; SMILES CCCC[C@@H]1NC(=O)[C@@H]2CCCN2C(=O)CNC(=O)[C@H](CCCCN)NC(=O)[C@H](Cc2c[nH]cn2)NC(=O)[C@@H](NC(=O)[C@H](CC(=O)O)NC(=O)[C@H](CCCNC(=N)N)NC(=O)[C@@H]2CCCN2C(=O)[C@H](CCCNC(=N)N)NC(=O)[C@@H]2CCC(=O)N2)CSSC[C@@H](C(=O)N[C@@H](Cc2ccccc2)C(=O)O)NC1=O) [Example 42: pE-R-P-R-D-C-H-K-G-P-Nle-C-F-OH]
## Result 92.8

## Task Try this binder too: [pGlu]RPRLCK(Palmitoyl)KGP[Nle]CF-OH (disulfide 6-12; SMILES CCCCCCCCCCCCCCCC(=O)NCCCC[C@@H]1NC(=O)[C@@H](NC(=O)[C@H](CC(C)C)NC(=O)[C@H](CCCNC(=N)N)NC(=O)[C@@H]2CCCN2C(=O)[C@H](CCCNC(=N)N)NC(=O)[C@@H]2CCC(=O)N2)CSSC[C@@H](C(=O)N[C@@H](Cc2ccccc2)C(=O)O)NC(=O)[C@H](CCCC)NC(=O)[C@@H]2CCCN2C(=O)CNC(=O)[C@H](CCCCN)NC1=O) [Example 23: pE-R-P-R-L-C-K(Palmitoyl)-K-G-P-Nle-C-F-OH]
## Result 52.4

## Task Try this binder too: [pGlu]RPCLCCKGP[Nle]CF-OH (disulfide 6-12, 4-7) [Example 28: pE-R-P-C-L-C-C-K-G-P-Nle-C-F-OH]
## Result 5.68

## Task Try this binder too: [pGlu]RPRLCHKLP[Nle]CF-OH (disulfide 6-12; SMILES CCCC[C@@H]1NC(=O)[C@@H]2CCCN2C(=O)[C@H](CC(C)C)NC(=O)[C@H](CCCCN)NC(=O)[C@H](Cc2c[nH]cn2)NC(=O)[C@@H](NC(=O)[C@H](CC(C)C)NC(=O)[C@H](CCCNC(=N)N)NC(=O)[C@@H]2CCCN2C(=O)[C@H](CCCNC(=N)N)NC(=O)[C@@H]2CCC(=O)N2)CSSC[C@@H](C(=O)N[C@@H](Cc2ccccc2)C(=O)O)NC1=O) [Example 44: pE-R-P-R-L-C-H-K-L-P-Nle-C-F-OH]
## Result 5.94

## Task Try this binder too: [pGlu]RPRLCHK[Aib]P[Nle]CF-OH (disulfide 6-12; SMILES CCCC[C@@H]1NC(=O)[C@@H]2CCCN2C(=O)C(C)(C)NC(=O)[C@H](CCCCN)NC(=O)[C@H](Cc2c[nH]cn2)NC(=O)[C@@H](NC(=O)[C@H](CC(C)C)NC(=O)[C@H](CCCNC(=N)N)NC(=O)[C@@H]2CCCN2C(=O)[C@H](CCCNC(=N)N)NC(=O)[C@@H]2CCC(=O)N2)CSSC[C@@H](C(=O)N[C@@H](Cc2ccccc2)C(=O)O)NC1=O) [Example 20: pE-R-P-R-L-C-H-K-Aib-P-Nle-C-F-OH]
## Result 173

## Task Try this binder too: [pGlu]RPRLCHKGP[Nle][hCys]F-OH (disulfide 6-12; SMILES CCCC[C@@H]1NC(=O)[C@@H]2CCCN2C(=O)CNC(=O)[C@H](CCCCN)NC(=O)[C@H](Cc2c[nH]cn2)NC(=O)[C@@H](NC(=O)[C@H](CC(C)C)NC(=O)[C@H](CCCNC(=N)N)NC(=O)[C@@H]2CCCN2C(=O)[C@H](CCCNC(=N)N)NC(=O)[C@@H]2CCC(=O)N2)CSSCC[C@@H](C(=O)N[C@@H](Cc2ccccc2)C(=O)O)NC1=O) [Example 51: pE-R-P-R-L-C-H-K-G-P-Nle-hC-F-OH]
## Result 1.09
